Hey, just so you know, these numbers are from patent US20160200799A1.

measured.on: Influenza virus A/Panama/2007/1999 (H3N2) (Influenza A virus A/Panama/2007/1999 (H3N2))
procedure.text: cell-based or functional assay
Catalogue of binders with associated Neutralizing activity (%) at 250 µg/ml
Report as a plain number; the unit % is understood.

Q. Would you mind telling me what Neutralizing activity (%) at 250 µg/ml value was observed for Group 58 representative clone F083-307, Fab-PP-type antibody (Fab, V domains shown) VH: QVQLQQSGADVKKPGSSVKVSCKASGGTFGNYAISWVRQAPGQGLEWMGGITPIFGPANYAQRFQGRVTISADISTRTAYMELSSLRSEDTAIYYCARHPTYYFGSAMEYWGQGTLVTVSS VL: SYELTQPPSVSVAPGQTATITCGGDRIGTGPVHWYQQRPGRAPVLIIYGSTHRPSGIPERFSGSKSVNTATLSISGVGVGDEADYYCQVWDTSTAQPIVFGGGTKLTVLS ?
A. 11.6
